Origin of values: ChEMBL document CHEMBL5149975

molecular target: Tyrosine-protein phosphatase non-receptor type 1 (Homo sapiens, UniProt P18031); experiment: Inhibition of PTP1B (unknown origin)
Exercise: state measured IC50 for each of the molecules provided.
One number for each entry, in µM.

Completed entries (count: 2):
SMILES_ENTRY: COC(=O)[C@@]12Oc3c(-c4ccc5c(c4O)C(=O)C4=C(O)C[C@H](C)[C@H](O)[C@]4(C(=O)OC)O5)ccc(O)c3C(=O)C1=C(O)C[C@H](C)[C@H]2O
IC50 (µM): 5.9
--
SMILES_ENTRY: COC(=O)[C@@]12Oc3ccc(-c4ccc5c(c4O)C(=O)C4=C(O)C[C@H](C)[C@H](O)[C@]4(C(=O)OC)O5)c(O)c3C(=O)C1=C(O)C[C@H](C)[C@H]2O
IC50 (µM): 9.6

Then this molecule:
Could you share which IC50 value was measured for COC(=O)[C@@]12Oc3ccc(Oc4cccc5c4C(=O)C4=C(O)C[C@H](C)[C@H](O)[C@]4(C(=O)OC)O5)c(O)c3C(=O)C1=C(O)C[C@H](C)[C@H]2O ? 6

* * *

Target: Tyrosine-protein phosphatase non-receptor type 1 (Homo sapiens)
Sequence (P18031 whole entry): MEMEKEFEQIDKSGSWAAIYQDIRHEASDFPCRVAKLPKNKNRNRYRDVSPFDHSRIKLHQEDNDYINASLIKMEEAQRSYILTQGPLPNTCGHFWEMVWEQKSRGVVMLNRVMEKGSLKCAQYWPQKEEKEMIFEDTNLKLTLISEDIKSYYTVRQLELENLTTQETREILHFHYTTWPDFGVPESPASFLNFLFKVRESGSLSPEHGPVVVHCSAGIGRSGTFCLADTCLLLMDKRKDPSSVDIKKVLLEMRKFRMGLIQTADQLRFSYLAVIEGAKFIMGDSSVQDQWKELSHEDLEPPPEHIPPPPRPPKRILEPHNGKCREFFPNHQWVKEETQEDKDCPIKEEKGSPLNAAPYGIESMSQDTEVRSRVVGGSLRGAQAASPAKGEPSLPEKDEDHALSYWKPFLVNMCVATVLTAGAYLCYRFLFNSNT
Assay: Inhibition of human recombinant PTP1B (1 to 322 residues) expressed in Escherichia coli using pNPP as substrate incubated for 10 mins followed by substrate addition and measured after 30 mins by microplate reader based analysis
MEASURED_ENDPOINT: pIC50
Numbers only, as −log10 of the molar value.

SMILES_ENTRY: COc1cc(C)c(Oc2cc(C)cc(O)c2)c(O)c1
REPORTED: 4.77

// switching to the query molecule
Fill blank: measured pIC50 of the molecule COc1cc(C)c(Oc2cc(C)cc(O)c2O)c(O)c1 is ____. 4.89

* * *

assay: Antioxidant activity of the compound by DPPH assay; type: functional
Answer each item with its documented pIC50.
Numbers only, as −log10 of the molar value.

SMILES_ENTRY: O=c1c(O)c(-c2ccc(O)c(O)c2)oc2cc(O)cc(O)c12
pIC50: 5.24

Look at this molecule and give its reported pIC50. COC(=O)[C@H]1C[C@@H](C)[C@H]2[C@@H](C=C[C@H](C)[C@@H]2/C=C/C=C/C(=O)O)[C@@H]1C 5.55
